# System: UACC-62 melanoma
# Test method notes: NCI tumour cell line growth inhibition, 48 h
Exercise: for every item that follows, state its recorded GI50.

Compound	Target under test	Metric	Measured
CCc1nccc2c1nc(-c1nonc1N)n2CC	UACC-62 melanoma	GI50	> 25000 nM
Cc1ccccc1[P+](Cc1ccccc1)(c1ccccc1)c1ccccc1	UACC-62 melanoma	GI50	1360 nM
CN1CCC(n2cnc(-c3ccc(F)cc3)c2-c2ccnc(NCCO)n2)CC1	UACC-62 melanoma	GI50	> 21600 nM

Each compound below has a recorded value; state its GI50.
1. COc1ccc(-c2csc(N(C(=O)N3CCN(c4cc5c(cc4F)c(=O)c(C(=O)O)cn5C4CC4)CC3)c3ccccc3)n2)cc1
2. COc1cc(C2CC(c3ccc4c(c3)OCO4)=NN2C=O)cc(OC)c1OC (stereo unspecified)
3. Cn1cccc1-c1cc(-c2cccs2)nc(N)c1C#N

Response:
1: 2240 nM; 2: 2210 nM; 3: 87000 nM

src = PubChem BioAssay (NCI)
